Values from PubChem BioAssay (NCI)

What growth was measured for each of the following?
Tested on: RPMI-8226 leukemia
Assay: NCI-60 one-dose screen, 48 h (100 = growth as untreated, 0 = no growth, -100 = all killed)
Details: 10 µM unless noted
The panel holds about 83,000 compounds, 20% with a hit somewhere; the sample as a whole holds those more often. Active and inactive are the calls of the source. The calls were made as follows: active = growth percent below 10; inactive = the rest.

// assay RPMI-8226 leukemia, entry CCCCCCCCCCCCCCCCCCOc1ccccc1CC(=O)OCC[N+]1(C)CCCC1 , growth value = 21.6% (inactive)

// assay RPMI-8226 leukemia, entry C=C1CC[C@@H]2[C@](C)(COC(C)=O)[C@H](OC(C)=O)CC[C@@]2(C)[C@@H]1CC(Sc1ccccc1)C1=CCOC1=O (stereo not given in full) , growth value = -4.72% (active)

// assay RPMI-8226 leukemia, entry CCOC(=O)CNP(=O)(OC[C@@H](Cc1ccccc1)NC(=O)c1cc2ccccc2s1)Oc1ccccc1 (stereo not given in full) , growth value = 79.6% (inactive)

// assay RPMI-8226 leukemia, entry Oc1ccc(CCn2c(O)c(/C=C3\CN=c4ccccc4=N3)sc2=S)cc1 , growth value = 33.8% (inactive)

// assay RPMI-8226 leukemia, entry Cc1c(-c2nc3ccc(F)cc3c(=O)[nH]2)c2ccccc2n1C , growth value = 40.9% (inactive)

// assay RPMI-8226 leukemia, entry O=C(CSc1nc(-c2ccccc2)[nH]c1S(=O)(=O)c1ccccc1)NC1CC1 , growth value = 90.1% (inactive)

// assay RPMI-8226 leukemia, entry CCNc1nc(-c2ccc(Cl)c(OC)c2)c(-c2ccnc(NCCCNS(=O)(=O)c3ccc(Cl)cc3)n2)s1 , growth value = 45.9% (inactive)

// assay RPMI-8226 leukemia, entry O=C(N/N=C/c1ccc(F)cc1)c1ccc(C(F)(F)F)nc1Nc1cccc(C(F)(F)F)c1 , growth value = -49.8% (active)

// assay RPMI-8226 leukemia, entry C1=C(N2CCCC2)CCC1 , growth value = 95.4% (inactive)

// assay RPMI-8226 leukemia, entry O=C1/C(=C\c2cn(-c3ccccc3)nc2-c2ccc(-c3cccs3)cc2)CCc2ccccc21 , growth value = 52.2% (inactive)

// assay RPMI-8226 leukemia, entry O=C(O)c1[nH]c(=O)[nH]c(=O)c1[N+](=O)[O-] , growth value = 112% (inactive)

// assay RPMI-8226 leukemia, entry CNC(=O)c1cc(Oc2ccc3nc(NC(C)=O)sc3c2)ccn1 , growth value = 93.8% (inactive)

// assay RPMI-8226 leukemia, entry Cc1ccc(Cl)cc1Nc1nc(C(F)(F)F)ccc1C(=O)N/N=C/c1cccnc1 , growth value = 21% (inactive)

// assay RPMI-8226 leukemia, entry O=C(O)CCCN1C(=O)/C(=C/C(Cl)=C/c2ccccc2)SC1=S , growth value = -13.1% (active)

// assay RPMI-8226 leukemia, entry Cc1ccc(Sc2nnc(/N=C3\C(=O)Nc4ccccc43)s2)cc1 , growth value = 94.8% (inactive)

// assay RPMI-8226 leukemia, entry C=CCc1c2c(c(OC)c3ccoc13)C(=O)/C(=C/c1ccccc1OC)O2 , growth value = 29.2% (inactive)

// assay RPMI-8226 leukemia, entry O=C(O)c1ccc(-n2cc(/C=N/Nc3ccc(F)cc3)c(-c3cc4ccccc4oc3=O)n2)cc1 , growth value = 90.4% (inactive)

// assay RPMI-8226 leukemia, entry CCOC(=O)c1cc(-c2ccc([N+](=O)[O-])cc2)n(-c2ccc(C(=O)O)c(O)c2)c1C , growth value = -3.07% (active)

// assay RPMI-8226 leukemia, entry CCOC(=O)/C=C1\S/C(=N\Nc2cc(=O)[nH]c3ccc(Cl)cc23)N(c2ccccc2)C1=O , growth value = 3.83% (active)

// assay RPMI-8226 leukemia, entry COc1ccc(/C(C)=C(/c2ccc(OCCCN(C)C)cc2)c2ccc(OC(=O)Cc3ccccc3)cc2)cc1 , growth value = 48.1% (inactive)
